Test system: EKVX NSCLC
Assay: NCI tumour cell line growth inhibition, 48 h
Recorded TGI by entry

Here's what some known entries look like.
1. N#CC12CC(C=O)=C(N)C1(C#N)CC(C=O)=C2N (centres undefined) :: > 100 µM
2. CCOc1cc2c(cc1O)C=C[C@@H]1[C@@H]2CC[C@]2(C)[C@@H](O)CC[C@@H]12 :: > 100 µM
3. CCCC(=O)Oc1ccc(/C=N/NC(N)=S)nc1 :: > 100 µM
4. CC[C@H](C)[C@H](NC(=O)c1ncccn1)C(=O)N(C)[C@H](C[C@@H](OC(C)=O)c1nc(C(=O)N[C@@H](Cc2ccccc2)C[C@H](C)C(=O)OC)cs1)C(C)C :: > 25 µM
5. Cc1nc(-c2cccnc2)sc1C(=O)CC(=O)C(=O)Nc1cccc(NC(=O)C(=O)CC(=O)c2sc(-c3cccnc3)nc2C)n1 :: > 100 µM

## Input Dear colleague, please send me the reported TGI for COc1ccc2cc(C(=O)N3CCC([C@@H](C)C(=O)NCc4ccc5c(c4)OCO5)CC3)[nH]c2c1 when you can.
## Output > 100 µM

## Input Dear colleague, please send me the reported TGI for COc1cc(OCCCN2CCCC2)ccc1Nc1ncc(Cl)c(Nc2ccccc2P(C)(C)=O)n1 when you can.
## Output > 20.5 µM

## Input Dear colleague, please send me the reported TGI for COc1ccc(CC2Cc3ccccc3CC(=O)N2)cc1OC (centres undefined) when you can.
## Output > 100 µM

## Input Dear colleague, please send me the reported TGI for Cc1cn(C(CO)OC(CO)CN(O)C2C3CC4CC(C3)CC2C4)c(=O)[nH]c1=O (centres undefined) when you can.
## Output > 100 µM

###

System: TK-10 renal
Assay: NCI tumour cell line growth inhibition, 48 h
measurement_kind: TGI

Here's what some known entries look like.
1. Cc1ccc([N+](=O)[O-])cc1NC(=O)C(=O)Cc1nc2ccc(C(=O)c3ccccc3)cc2[nH]c1=O :: > 100 µM
2. COP(=O)(/C=C/C(NC(=O)C(Cl)(Cl)Cl)c1ccccc1)OC (stereo unspecified) :: > 100 µM
3. COC(Cc1cc(C(O)(c2ccc(C(C)(C)C)cc2)c2cc(CC(OC)(c3cc(C(OC)(c4ccc(C(C)(C)C)cc4)c4ccc(C(C)(C)C)cc4)c(C)cc3C)c3cc(C(OC)(c4ccc(C(C)(C)C)cc4)c4ccc(C(C)(C)C)cc4)c(C)cc3C)c(C)cc2C)c(C)cc1C)(c1cc(C(OC)(c2ccc(C(C)(C)C)cc2)c2ccc(C(C)(C)C)cc2)c(C)cc1C)c1cc(C(OC)(c2ccc(C(C)(C)C)cc2)c2ccc(C(C)(C)C)cc2)c(C)cc1C :: > 75 µM

## Input Dear colleague, please send me the reported TGI for COc1cc(/C=C/C(=O)c2ccccc2O)ccc1OCCCOc1cc2c(cc1OC)C(=O)N1CCC[C@H]1C=N2 when you can.
## Output 1.62 µM

## Input Dear colleague, please send me the reported TGI for CCCNC(=O)Cn1c2c(c3ccccc31)CCCC2 when you can.
## Output > 100 µM

###

Tested on: BT-549 breast
Experiment: NCI tumour cell line growth inhibition, 48 h
measurement_kind: TGI (µM)
The reply should contain only the number, in µM.

1) N#Cc1ccc2[nH]cc(Cc3c[nH]c4ccc(C#N)cc34)c2c1 :: 20.7

# next compound below
## Input Dear colleague, please send me the reported TGI for COc1cc(/C=C2\C[C@H]3[C@@H]4CC=C5C[C@@H](O)CC[C@]5(C)[C@H]4CC[C@]3(C)[C@H]2O)ccc1OCCN1CCCCC1 when you can.
## Output 2.49
